target: recombinant human TFPI (tissue factor pathway inhibitor) (human, UniProt P10646 29-304); assay: cell-based or functional assay
Listed here are binders together with their documented % of Normalized, TF/FVIIa/FX complex assay, Ab 1.56 nM.
Field format: number, assumed %, no unit text.

{"binder": "clone A67 (antibody, V domains shown) VH: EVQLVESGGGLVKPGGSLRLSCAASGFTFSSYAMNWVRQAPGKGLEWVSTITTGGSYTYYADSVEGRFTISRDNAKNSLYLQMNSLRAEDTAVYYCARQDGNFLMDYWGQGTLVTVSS VL: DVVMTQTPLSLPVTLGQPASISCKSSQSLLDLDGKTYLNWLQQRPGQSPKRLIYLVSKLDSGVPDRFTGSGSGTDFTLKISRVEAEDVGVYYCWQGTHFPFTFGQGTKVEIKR", "val": 16.3}
{"binder": "clone 1023 (antibody, V domains shown, scFv on yeast at selection; human IgG4/kappa IgG as purified) VH: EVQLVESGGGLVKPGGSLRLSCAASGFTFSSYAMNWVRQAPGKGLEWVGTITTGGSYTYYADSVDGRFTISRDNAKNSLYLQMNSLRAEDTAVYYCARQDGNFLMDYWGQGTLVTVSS VL: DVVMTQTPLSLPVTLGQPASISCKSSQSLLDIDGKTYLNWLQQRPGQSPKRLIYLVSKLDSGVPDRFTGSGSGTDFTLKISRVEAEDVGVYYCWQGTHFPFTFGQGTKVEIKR", "val": 14.7}
{"binder": "clone 3203 (antibody, V domains shown) VH: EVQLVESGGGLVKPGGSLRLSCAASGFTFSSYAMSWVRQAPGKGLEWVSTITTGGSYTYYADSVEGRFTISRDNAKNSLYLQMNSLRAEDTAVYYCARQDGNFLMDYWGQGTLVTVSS VL: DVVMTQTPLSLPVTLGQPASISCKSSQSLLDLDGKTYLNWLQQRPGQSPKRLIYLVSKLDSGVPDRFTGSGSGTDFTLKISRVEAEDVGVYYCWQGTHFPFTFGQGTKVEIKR", "val": 16.1}

Respond only with % of Normalized, TF/FVIIa/FX complex assay, Ab 1.56 nM recorded for clone 3241 (antibody, V domains shown, scFv on yeast at selection; human IgG4/kappa IgG as purified; also called No. 3241 antibody) VH: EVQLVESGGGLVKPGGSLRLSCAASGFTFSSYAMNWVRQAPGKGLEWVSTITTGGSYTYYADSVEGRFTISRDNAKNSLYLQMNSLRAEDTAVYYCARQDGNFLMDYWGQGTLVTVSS VL: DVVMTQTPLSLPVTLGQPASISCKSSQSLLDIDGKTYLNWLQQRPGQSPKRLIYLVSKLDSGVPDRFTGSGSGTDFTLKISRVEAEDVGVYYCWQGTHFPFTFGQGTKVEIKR
17.2
